- Measured on: T1, Recombinant MBP-mutCALR Type 1 fusion protein (human)
- T1 construct: custom made at Cepter; also called recombinant mutCALR protein
- Experiment summary: SPR, IgG captured, 1:1 fit, Exp. 2
- Procedure: Experiment 2: Recombinant MBP-mutCALR Type 1 fusion protein was custom made at Cepter (cepterbiopartners.com). Data for the interaction of antibodies with recombinant mutCALR protein were collected at 25° C. on a Biacore 8K instrument (Cytiva, Marlborough, Mass.), and all reagents were obtained from Cytiva unless otherwise specified. The experiments were conducted using Tris-buffered saline (pH 7.2), 0.005% Surfactant P20, 1 mM CaCl₂) as running buffer. […]
kon for assorted binders
Enter your answer as a number in M⁻¹ s⁻¹; do not include the unit.

Binder	Measured attribute	Value observed
anti-mutCALR antibody clone 75 (antibody, human IgG1, lambda, N297A, V domains shown, human IgG1 N297A variant of clone 6) VH: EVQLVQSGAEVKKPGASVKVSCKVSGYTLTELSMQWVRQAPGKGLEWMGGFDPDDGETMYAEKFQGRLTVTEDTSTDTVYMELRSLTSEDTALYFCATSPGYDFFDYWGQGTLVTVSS VL: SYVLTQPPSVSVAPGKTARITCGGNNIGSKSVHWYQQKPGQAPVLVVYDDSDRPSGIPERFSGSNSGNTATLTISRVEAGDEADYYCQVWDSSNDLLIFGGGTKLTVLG	kon	6.12e+06
anti-mutCALR antibody clone 142 (antibody, human IgG1, lambda, N297A, V domains shown, human IgG1 N297A variant of clone 15) VH: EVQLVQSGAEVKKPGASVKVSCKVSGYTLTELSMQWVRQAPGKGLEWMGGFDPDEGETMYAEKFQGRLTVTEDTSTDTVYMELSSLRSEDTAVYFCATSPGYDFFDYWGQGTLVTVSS VL: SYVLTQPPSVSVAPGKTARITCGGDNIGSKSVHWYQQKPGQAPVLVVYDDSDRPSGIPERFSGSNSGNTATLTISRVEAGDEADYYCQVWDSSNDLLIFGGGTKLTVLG	kon	1.19e+06

Alright, here's another binder for you.
// kon value for anti-mutCALR antibody clone 179 (antibody, human IgG1, lambda, N297A, V domains shown, human IgG1 N297A variant of clone 17) VH: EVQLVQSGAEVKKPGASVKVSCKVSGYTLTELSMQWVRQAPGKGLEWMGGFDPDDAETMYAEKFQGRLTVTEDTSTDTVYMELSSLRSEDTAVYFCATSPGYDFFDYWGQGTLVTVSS VL: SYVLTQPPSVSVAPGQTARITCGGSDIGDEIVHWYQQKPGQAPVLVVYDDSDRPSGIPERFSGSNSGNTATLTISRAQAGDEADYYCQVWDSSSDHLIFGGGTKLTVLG : 1e+07

Hello, the source for this data is patent US20230272055A1, in case you need it.
